The entries below come with measured fraction unbound at 6 h values attached.
test: Plasma protein binding by equilibrium dialysis; format: in vitro ADME; settings: mouse plasma, 6 h incubation at 37 °C
The response must contain the number and no unit.

{"structure smiles string": "CN1Cc2cc(-c3ccc(-c4cncc(NS(=O)(=O)c5ccc(F)cc5F)c4)s3)ccc2C1=O", "fraction unbound at 6 h": 0.0011}
{"structure smiles string": "O=C1NCc2ccc(-c3ccc(-c4cncc(NS(=O)(=O)c5ccc(F)cc5F)c4)s3)cc21", "fraction unbound at 6 h": 0.0003}
{"structure smiles string": "O=C1NCc2cc(-c3ccc(-c4cncc(NS(=O)(=O)c5ccc(F)cc5F)c4)s3)ccc21", "fraction unbound at 6 h": 0.003}

Now, please, on to the next molecule.
// query Look up fraction unbound at 6 h for this molecule: O=C1Cc2cc(-c3ccc(-c4cncc(NS(=O)(=O)c5ccc(F)cc5F)c4)s3)ccc2N1
// result 0.0009

---

assay: Solubility of the sodium salt in water; format: physicochemical; conditions: sodium salt in water
The entries below come with measured solubility values attached.
The reply should contain only the number, in µg/mL.

Example compounds with recorded solubility:
{"structure smiles string": "CN1Cc2cc(-c3ccc(-c4cncc(NS(=O)(=O)c5ccc(F)cc5F)c4)s3)ccc2C1=O", "readout kind": "solubility", "unit name": "µg/mL", "experimental result": 1100}
{"structure smiles string": "O=C1NCc2ccc(-c3ccc(-c4cncc(NS(=O)(=O)c5ccc(F)cc5F)c4)s3)cc21", "readout kind": "solubility", "unit name": "µg/mL", "experimental result": 12900}
{"structure smiles string": "O=C1Cc2cc(-c3ccc(-c4cncc(NS(=O)(=O)c5ccc(F)cc5F)c4)s3)ccc2N1", "readout kind": "solubility", "unit name": "µg/mL", "experimental result": 390}

Now, please, on to the next compound.
// query Look up solubility for this compound: O=C1NCc2cc(-c3ccc(-c4cncc(NS(=O)(=O)c5ccc(F)cc5F)c4)s3)ccc21
// result 10600

---

The entries below come with measured viability at 24 h, 20 µM values attached.
assay: Toxicity to KHYG-1 NK cells (Trypan blue exclusion); format: cell-based, human; details: human, KHYG-1 NK cells, after 24 h, ± SEM

{"compound": "O=C1Cc2cc(-c3ccc(-c4cncc(NS(=O)(=O)c5ccc(F)cc5F)c4)s3)ccc2N1 [Compound 14]", "experimental result": "> 90%"}
{"compound": "O=C1NCc2ccc(-c3ccc(-c4cncc(NS(=O)(=O)c5ccc(F)cc5F)c4)s3)cc21 [Compound 7]", "experimental result": "> 90%"}

Now, please, on to the next compound.
// query Look up viability at 24 h, 20 µM for this compound: O=C1NCc2cc(-c3ccc(-c4cncc(NS(=O)(=O)c5ccc(F)cc5F)c4)s3)ccc21 [Compound 6]
// result > 90%

---

test: Solubility of the sodium salt in water; assay type: physicochemical; settings: sodium salt in water at room temperature
The entries below come with measured solubility values attached.

Example compounds with recorded solubility:
{"structure smiles string": "CN1Cc2cc(-c3ccc(-c4cncc(NS(=O)(=O)c5ccc(F)cc5F)c4)s3)ccc2C1=O", "solubility": "1080 µg/mL"}
{"structure smiles string": "O=C1NCc2cc(-c3ccc(-c4cncc(NS(=O)(=O)c5ccc(F)cc5F)c4)s3)ccc21", "solubility": "10600 µg/mL"}
{"structure smiles string": "O=C1NCc2ccc(-c3ccc(-c4cncc(NS(=O)(=O)c5ccc(F)cc5F)c4)s3)cc21", "solubility": "12900 µg/mL"}

Now, please, on to the next compound.
// query Look up solubility for this compound: O=C1Cc2cc(-c3ccc(-c4cncc(NS(=O)(=O)c5ccc(F)cc5F)c4)s3)ccc2N1
// result 392 µg/mL
